Measured values drawn from PubChem BioAssay (NCI) for this set.

Tested on: SR leukemia
Procedure text: NCI tumour cell line growth inhibition, 48 h; in the data active means GI50 below about 0.43 µM; inactive means the rest
// allowed return values: t for active, f for inactive

Recorded results for 4 compounds are shown here.
compound_structure=O=C1NC(=O)[C@@H](c2c[nH]c3ccccc23)[C@@H]1c1c[nH]c2ccccc12 discrete_label=f
compound_structure=COc1cc(-c2nc(-c3ccc(-c4nc5ccc(F)cc5[nH]4)cc3)no2)cc(OC)c1OC discrete_label=f
compound_structure=COc1cnc2c(c1)C(=O)c1c-2n(CCCNCCN2CCOCC2)c(=O)c2cc([N+](=O)[O-])ccc12 discrete_label=t
compound_structure=O=C(Cn1c(C(=O)c2ccc(Cl)cc2)nc(-c2ccccc2)c1-c1ccccc1)c1ccc(Cl)cc1 discrete_label=f

We next turn to a different compound, shown below.
Challenge: For COc1cc(-c2nc3cc(Cl)c(Cl)cc3[nH]2)ccc1OCC(=O)N=Nc1c(O)[nH]c2ccc(Cl)cc12 , what call appears in the results of this test?
Response given: t
